Molecular target: Variant3 ND (Burkholderia rhizoxinica) (UniProt E5AV36)
Test: ITC
Conditions: FA and ITC: 25 mM HEPES pH 8, 150 mM NaCl, 0.2 mM TCEP, 298 K, SPR: HBS-EP+ (10 mM HEPES pH 7.4, 150 mM NaCl, 3 mM EDTA, 0.05% P20)
REPORTED ENDPOINT: Kd (µM)
Answer with a number only, understood to be in µM.

q: Can you look up the measured Kd of TTCAGTGTTTATGGTTACTTATA (double strand) [V3 target] for me?
a: 0.026
